Target: CMY-2 (Klebsiella pneumoniae, UniProt Q48434)
Sequence (Q48434 21-381): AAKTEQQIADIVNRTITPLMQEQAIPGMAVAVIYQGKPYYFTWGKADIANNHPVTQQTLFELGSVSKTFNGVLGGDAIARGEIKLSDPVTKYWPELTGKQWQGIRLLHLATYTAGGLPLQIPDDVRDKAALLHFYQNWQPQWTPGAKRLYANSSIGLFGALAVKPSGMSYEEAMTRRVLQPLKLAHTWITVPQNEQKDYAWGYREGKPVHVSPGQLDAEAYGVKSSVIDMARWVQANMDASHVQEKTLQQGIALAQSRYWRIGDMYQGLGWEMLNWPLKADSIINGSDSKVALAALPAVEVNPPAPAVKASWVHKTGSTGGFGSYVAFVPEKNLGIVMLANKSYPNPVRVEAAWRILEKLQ
Experiment: biochemical
Conditions: purified enzyme, nitrocefin reporter substrate, 10 min preincubation; read-out: Ki (CMY-2, NCF)
measured.endpoint: Ki

O=C(Cc1cccs1)N[C@@H](Cn1cc(C(=O)O)nn1)B(O)O [Compound 1] :: 60 nM

Turning to the following compound.
Give its Ki value. Item: O=C(O)[C@H]1/C(=C/CO)O[C@@H]2CC(=O)N21 [Clavulanic Acid]
> 100000 nM

* * *

Target: SHV-12 (Klebsiella pneumoniae, UniProt P0AD64, E235K/G234S/L31Q)
Sequence (P0AD64 22-286 L31Q/G234S/E235K): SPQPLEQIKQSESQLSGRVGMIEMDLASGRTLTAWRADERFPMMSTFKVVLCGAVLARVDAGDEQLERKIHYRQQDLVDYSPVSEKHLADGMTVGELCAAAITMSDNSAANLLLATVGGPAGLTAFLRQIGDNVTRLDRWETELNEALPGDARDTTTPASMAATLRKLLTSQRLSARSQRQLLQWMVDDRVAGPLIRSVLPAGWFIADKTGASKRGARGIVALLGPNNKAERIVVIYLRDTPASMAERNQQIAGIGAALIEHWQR
Experiment: Inhibition of nitrocefin cleavage by purified enzyme
Conditions: nitrocefin reporter substrate, 10 min preincubation, read-out: Ki (SHV-12, NCF)
measured.endpoint: pKi
Note: pKi values are expressed as the negative base-10 logarithm of concentration in M.

Give its pKi value. Item: O=C(Cc1cccs1)N[C@@H](Cn1cc(C(=O)O)nn1)B(O)O
8.30

* * *

Recorded Ki, one value per entry.
Target: CTX-M-14 (Escherichia coli)
Sequence (Q9L5C7 entry or part of it): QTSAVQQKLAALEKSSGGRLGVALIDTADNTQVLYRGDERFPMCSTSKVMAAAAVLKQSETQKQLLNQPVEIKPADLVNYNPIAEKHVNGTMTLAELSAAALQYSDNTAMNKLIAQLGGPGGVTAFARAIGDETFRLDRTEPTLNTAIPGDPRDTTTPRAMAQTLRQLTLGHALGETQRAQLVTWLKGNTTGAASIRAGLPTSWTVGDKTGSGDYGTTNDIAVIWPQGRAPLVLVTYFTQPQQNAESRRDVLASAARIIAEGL
Assay: Inhibition of nitrocefin cleavage by purified enzyme
Settings: nitrocefin reporter substrate, 10 min preincubation, read-out: Ki (CTX-M-14, NCF)
Use nM as the unit, but write only the number.

O=C(Cc1cccs1)N[C@@H](Cn1cc(C(=O)O)nn1)B(O)O [Compound 1] :: 5

Give its Ki value. Item: O=C(O)[C@H]1/C(=C/CO)O[C@@H]2CC(=O)N21 [Clavulanic Acid]
27

* * *

Recorded Ki, one value per entry.
Biological target: OXA-48 (Klebsiella pneumoniae, UniProt Q6XEC0)
Sequence (Q6XEC0 23-265 limits assumed): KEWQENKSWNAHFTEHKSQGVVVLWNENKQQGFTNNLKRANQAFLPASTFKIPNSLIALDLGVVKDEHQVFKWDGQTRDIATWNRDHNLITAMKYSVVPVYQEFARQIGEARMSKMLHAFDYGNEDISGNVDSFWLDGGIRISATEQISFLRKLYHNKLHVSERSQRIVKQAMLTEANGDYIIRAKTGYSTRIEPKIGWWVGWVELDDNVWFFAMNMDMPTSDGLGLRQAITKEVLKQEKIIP
Assay: Inhibition of nitrocefin cleavage by purified enzyme
Assay type: biochemical
Conditions: purified enzyme, nitrocefin reporter substrate, 10 min preincubation; read-out: Ki (OXA-48, NCF)
Use µM as the unit, but write only the number.

O=C(Cc1cccs1)N[C@@H](Cn1cc(C(=O)O)nn1)B(O)O :: 23.3

Turning to the following compound.
Give its Ki value. Item: O=C(O)[C@H]1/C(=C/CO)O[C@@H]2CC(=O)N21
18.6

* * *

Target: KPC-2 (Klebsiella pneumoniae)
Sequence (Q9F663 25-293 limits assumed): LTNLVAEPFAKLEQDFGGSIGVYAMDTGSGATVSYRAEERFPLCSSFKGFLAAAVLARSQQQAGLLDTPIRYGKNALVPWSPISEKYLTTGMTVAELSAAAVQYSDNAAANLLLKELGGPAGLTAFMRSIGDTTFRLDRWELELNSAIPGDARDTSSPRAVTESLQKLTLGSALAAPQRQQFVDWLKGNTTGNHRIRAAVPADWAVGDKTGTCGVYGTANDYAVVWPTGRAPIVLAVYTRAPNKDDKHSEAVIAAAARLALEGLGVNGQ
Assay: Inhibition of nitrocefin cleavage by purified enzyme
Assay type: biochemical
measured.endpoint: Ki (nM)
Use nM as the unit, but write only the number.

Give its Ki value. Item: C[C@]1(Cn2ccnn2)[C@H](C(=O)O)N2C(=O)C[C@H]2S1(=O)=O [Tazobactam]
1600

* * *

Target: OXA-48 (Klebsiella pneumoniae, UniProt Q6XEC0)
Assay: Inhibition of nitrocefin cleavage by purified enzyme
Type: biochemical
measured.endpoint: pKi
Note: pKi values are expressed as the negative base-10 logarithm of concentration in M.

Give its pKi value. Item: C[C@]1(Cn2ccnn2)[C@H](C(=O)O)N2C(=O)C[C@H]2S1(=O)=O
6.80

* * *

Target: P99 /AmpC of ECL (Enterobacter cloacae)
Sequence (P05364 21-381): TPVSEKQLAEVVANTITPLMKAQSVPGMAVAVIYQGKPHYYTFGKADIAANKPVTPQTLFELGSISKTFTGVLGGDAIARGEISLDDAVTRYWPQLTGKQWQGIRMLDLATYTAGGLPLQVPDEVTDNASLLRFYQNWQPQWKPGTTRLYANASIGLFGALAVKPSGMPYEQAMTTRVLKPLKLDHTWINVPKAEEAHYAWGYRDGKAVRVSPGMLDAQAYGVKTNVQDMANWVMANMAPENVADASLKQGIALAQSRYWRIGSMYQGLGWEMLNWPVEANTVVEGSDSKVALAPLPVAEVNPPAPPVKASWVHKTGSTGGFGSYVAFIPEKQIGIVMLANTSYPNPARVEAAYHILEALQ
Experiment: biochemical
Conditions: purified enzyme, nitrocefin reporter substrate, 10 min preincubation; read-out: Ki (P99 /AmpC of ECL, NCF)
measured.endpoint: Ki (nM)
Use nM as the unit, but write only the number.

Give its Ki value. Item: O=C(Cc1cccs1)N[C@@H](Cn1cc(C(=O)O)nn1)B(O)O
80
